B1: glmS ribozyme (parent)
chain: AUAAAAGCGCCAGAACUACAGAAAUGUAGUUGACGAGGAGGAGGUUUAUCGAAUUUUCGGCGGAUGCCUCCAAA

Variants of: B1
Protocol: kcat; higher = faster cleavage; RNA array
Run Conditions: with glucosamine-6-phosphate
This sample holds only a part of the variants without activity.
Measured Attribute: kcat

A12G A15G
0.000505 s⁻¹
G29A U56C
0.000719 s⁻¹
A14U G44A
6.83e-05 s⁻¹
C8A C70A
1.28e-05 s⁻¹
G13A G66A
0.000323 s⁻¹

Need kcat for each of these variants.
1. U46C C67A
2. C34G C67U

// result
["0.000818 s⁻¹", "< 1e-05 s⁻¹"]
